Sequence of the target: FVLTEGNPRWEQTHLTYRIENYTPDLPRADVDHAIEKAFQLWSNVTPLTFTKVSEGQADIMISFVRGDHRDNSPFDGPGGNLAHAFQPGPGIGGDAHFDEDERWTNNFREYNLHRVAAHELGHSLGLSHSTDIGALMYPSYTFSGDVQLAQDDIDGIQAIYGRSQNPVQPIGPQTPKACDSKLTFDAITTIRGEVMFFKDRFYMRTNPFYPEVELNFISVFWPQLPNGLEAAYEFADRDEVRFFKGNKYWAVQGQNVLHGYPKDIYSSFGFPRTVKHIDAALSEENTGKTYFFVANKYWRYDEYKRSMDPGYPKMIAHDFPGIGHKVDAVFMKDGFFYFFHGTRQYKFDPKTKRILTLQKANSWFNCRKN
RECORDED_ENDPOINT: IC50

- CHEMICAL_SMILES: "O=C(Cc1ccc(F)cc1)Nc1ccc2ncn(Cc3ccc(C(=O)O)cc3)c(=O)c2c1"
  REPORTED_VALUE: "> 100 µM"
- CHEMICAL_SMILES: "COc1cccc(CC(=O)Nc2cc3c(=O)n(Cc4ccc(C(=O)O)cc4)cnc3cc2F)c1"
  REPORTED_VALUE: "> 100 µM"
